Tested on: albino mice
ASSAY METHOD TEXT: climbing test, central depressant (sedative) action on albino mice
Assay type: in vivo
CONDITION DESCRIPTION: Mus musculus, po, 8.0 mg/kg orally, as hydrochloride, read-out: Central depressant action in % (percentage of animals which no longer embark on the climbing work)
Where a name gives a salt, the structure may show the parent alone.
What responders at 8 mg/kg was measured for each of the following?
Answer in %, number only, no unit symbol.

What does the data say about its responders at 8 mg/kg? Entry: CN(CC(=O)Nc1ccc(Cl)cc1C(=O)c1ccccc1)C(=S)Nc1ccccc1 50

And CC(Cc1ccccc1)NCC(=O)N(C)c1ccc([N+](=O)[O-])cc1C(=O)c1ccccc1 (racemic) [hydrochloride] ? 50

And CC(Cc1ccccc1)NCC(=O)N(C)c1ccc(Cl)cc1C(=O)c1ccccc1 (racemic) [hydrochloride] ? 40

And CC(Cc1ccccc1)NCC(=O)N(C)c1ccc(Cl)cc1C(=O)c1ccccc1Cl (racemic) [hydrochloride] ? 70

And CCCCNC(=O)CCN(CCCC)CC(=O)N(C)c1ccc([N+](=O)[O-])cc1C(=O)c1ccccc1 ? 50

And CCOC(=O)NCC(=O)N(C)c1ccc(Cl)cc1C(=O)c1ccccc1Cl ? 90

----------
What LD50 was measured for each of the following?
ASSAY METHOD TEXT: LD50 mice intraperitoneally
CONDITION DESCRIPTION: mouse, in vivo, ip, benzophenones as hydrochlorides
Counter-ions that a name gives are not always drawn.
Answer in mg/kg, number only, no unit symbol.

What does the data say about its LD50? Entry: CCOC(=O)NCC(=O)N(C)c1ccc([N+](=O)[O-])cc1C(=O)c1ccccc1 500

And CCCCNC(=O)CCN(CCCC)CC(=O)N(C)c1ccc([N+](=O)[O-])cc1C(=O)c1ccccc1 ? 500

And CC(Cc1ccccc1)NCC(=O)N(C)c1ccc(Cl)cc1C(=O)c1ccccc1Cl (racemic) [hydrochloride] ? 24

And CC(Cc1ccccc1)NCC(=O)N(C)c1ccc(Cl)cc1C(=O)c1ccccc1 (racemic) [hydrochloride] ? 240

And CCOC(=O)NCC(=O)N(C)c1ccc(Cl)cc1C(=O)c1ccccc1.Cl ? 270

And CC(Cc1ccccc1)NCC(=O)N(C)c1ccc([N+](=O)[O-])cc1C(=O)c1ccccc1 (racemic) [hydrochloride] ? 44

And CCOC(=O)NCC(=O)N(C)c1ccc(Cl)cc1C(=O)c1ccccc1Cl ? 240

Sourced from patent US4075409A
